Test: chemical genetic growth profiling, strain panel (AID 1159580);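 also: tested at 20 µM; growth read once vehicle control cultures reached saturation at 30 °C; 1 = growth at the plate median or of vehicle wells; lower values mean less growth of the strain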
Conditions: S. cerevisiae deletion strains, growth OD, locus YHR027C, strain rpn1, active compounds read low
Hit rate of the full screen: of about 5,500 compounds, about 2,000 (36%) were called active. Roughly 18% stayed inconclusive and do not appear here. Some of the results follow.
QUANTITY KIND: normalized growth
One number for each entry.

Consider the following illustrative entries.
CC1(C)C(O)CC(=O)C2(C)C1CC(O)C1(C)C2CCC2(C)C(c3ccoc3)OC(=O)C3OC321 (centres undefined); 0.987
Cc1c(C(N)=O)cc([N+](=O)[O-])cc1[N+](=O)[O-]; 1.02
CC(C)Nc1nc(Cl)nc(NC(C)C)n1; 0.994

# context switch: different molecule, same normalized growth
Summary for this molecule, CC1=CC(=O)C(C(C)C)=CC1=O : normalized growth is 0.996

---

Assay: chemical genetic growth profiling, strain panel (AID 1159580)
Settings: S. cerevisiae deletion strains, growth OD, locus YFR010W, strain ubp6
Among all 5,500 compounds or so, about 2,000 (36%) were called active. Inconclusive results (about 18%) are left out. Cut-off read from the data, not from the text of the source: active = normalized growth mostly below about 0.91 (no sharp cut-off); inconclusive = no clear call, values can overlap the other calls; inactive = mostly above about 0.92. The list shows a part of the results.
# output must be one of active, inactive

NC(=O)c1cc([N+](=O)[O-])cc([N+](=O)[O-])c1; inactive
OC1(c2ccc(Cl)c(C(F)(F)F)c2)CCN(CCCC(c2ccc(F)cc2)c2ccc(F)cc2)CC1; active

Q: Could you check what this test reported for O=C1CC2(CCCC2)CC(=O)N1CCCCN1CCN(c2ncccn2)CC1 ?
Result: inactive

Q: Could you check what this test reported for CC(=O)O[C@@H]1CC2C(C)(CC[C@H](O)C2(C)C)C2CC[C@]3(C)C(=CC(=O)O[C@H]3c3ccoc3)C21C (stereo not given in full) ?
Result: inactive

Q: Could you check what this test reported for NC[C@H]1O[C@H](OC2[C@@H](N)C[C@@H](N)[C@H](O[C@H]3O[C@H](CO)[C@@H](O)[C@H](N)[C@H]3O)[C@H]2O)[C@H](O)[C@@H](O)[C@@H]1O (stereo not given in full) ?
Result: inactive

Q: Could you check what this test reported for C=CCSCC=C ?
Result: inactive

Q: Could you check what this test reported for O=c1c(-c2ccc(O)cc2)coc2c(C3O[C@H](CO)[C@@H](O)[C@H](O)[C@H]3O)c(O)ccc12 (stereo not given in full) ?
Result: inactive

Q: Could you check what this test reported for CC1(C)C(=O)CC[C@@]2(C)C1C[C@@H](O)[C@@]1(C)C3=CC(=O)O[C@@H](c4ccoc4)[C@]3(C)CCC21 (stereo not given in full) ?
Result: inactive

Q: Could you check what this test reported for C[C@@H]1CC[C@@]23CCC4(C)[C@@](C=CC5[C@@]6(C)CC[C@H](O)C(C)(C)C6CC[C@]54C)(OC2=O)C3[C@H]1C (stereo not given in full) ?
Result: inactive

Q: Could you check what this test reported for C[C@@H]1CC[C@@]23CCC4(C)[C@@](C=CC5[C@@]6(C)CCC(=O)C(C)(C)C6CC[C@]54C)(OC2=O)C3[C@H]1C (stereo not given in full) ?
Result: inactive

Q: Could you check what this test reported for C[C@@H](CO)NC(=O)C1C=C2c3cccc4[nH]cc(c34)C[C@H]2N(C)C1 (stereo not given in full) ?
Result: inactive

Q: Could you check what this test reported for O=c1c2cc(O)c(O)cc2oc2cc(O)c(C3O[C@H](CO)[C@H](O)[C@@H](O)[C@H]3O)c(O)c12 (stereo not given in full) ?
Result: inactive

Q: Could you check what this test reported for COc1c(O)cc2c(c1O)[C@H]1O[C@H](CO)[C@@H](O)[C@H](O)[C@@H]1OC2=O ?
Result: inactive

Q: Could you check what this test reported for COc1cc2c(cc1OC)-c1c(oc3cc(O)cc(O)c3c1=O)CO2 ?
Result: inactive

Q: Could you check what this test reported for CO[C@@H]1[C@@H](OC(N)=O)[C@@H](O)[C@H](Oc2ccc3c(O)c(NC(=O)c4ccc(O)c(CC=C(C)C)c4)c(=O)oc3c2C)OC1(C)C ?
Result: inactive

---

Kindly state normalized growth for each of the entries shown.
Assay: chemical genetic growth profiling, strain panel (AID 1159580)
Conditions: S. cerevisiae deletion strains, growth OD, locus YOR083W, strain WHI5, active compounds read low
In all, about 5,500 compounds went through this assay and about 2,000 (36%) were called active. Roughly 18% stayed inconclusive and do not appear here. The list shows a part of the results.
Give bare numbers.

Consider the following illustrative entries.
O=C(/C=C(\O)c1ccccc1)c1ccccc1O; 0.745
CCC(=O)OCC(=O)C1(OC(=O)CC)C(C)CC2C3CCC4=CC(=O)C=CC4(C)C3(Cl)C(O)CC21C (centres undefined); 0.946
NC(=O)c1ccccc1O; 0.957
O=c1c2cc(O)c(O)cc2oc2cc(O)c(C3O[C@H](CO)[C@H](O)[C@@H](O)[C@H]3O)c(O)c12 (some centres undefined); 0.968
COC1C(O)C(O[C@H]2CC[C@]3(C=O)C4C(CC[C@]3(O)C2)[C@@]2(O)CC[C@H](C3=CC(=O)OC3)[C@@]2(C)C[C@H]4OC(C)=O)OC(C)C1OC(C)=O (some centres undefined); 1.03
COC1CC(OC2CCC3(C)C(CCC4C3CCC3(C)C(C5=CC(=O)OC5)C(OC(C)=O)CC43O)C2)OC(C)C1O (centres undefined); 1
COC(=O)C(N)CS (centres undefined); 0.988
COc1cccc2c1CCC1=CC(=O)CC[C@@]12C; 1.01

Summary for this compound, CC1(C)S[C@@H]2[C@H](NC(=O)C(C(=O)O)c3ccccc3)C(=O)N2[C@H]1C(=O)O (some centres undefined) : normalized growth is 0.994

---

Kindly state normalized growth for each of the entries shown.
Assay: chemical genetic growth profiling, strain panel (AID 1159580);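 also: tested at 20 µM; growth read once vehicle control cultures reached saturation at 30 °C; 1 = growth at the plate median or of vehicle wells; lower values mean less growth of the strain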
Details: S. cerevisiae deletion strains, growth OD, locus YOR061W, strain CKA2, active compounds read low
The whole screen tested about 5,500 compounds, of which about 2,000 (36%) were called active. About 18% were inconclusive and are not listed. The list shows a part of the results.
Answers are plain numbers.

Consider the following illustrative entries.
CC(=O)N1CCN(c2ccc(OCC3CO[C@](Cn4ccnc4)(c4ccc(Cl)cc4Cl)O3)cc2)CC1 (some centres undefined); 0.125
CCCCCCCCCCCCSc1ncn[nH]1; 0.84
CN1/C(=C/C=C/c2ccc3ccccc3[n+]2C)C=Cc2ccccc21; 0.181

Below are 4 compounds. Give each one its normalized growth.
1. Nc1nc(/C(=C/CC(=O)O)C(=O)N[C@@H]2C(=O)N3C(C(=O)O)=CCS[C@H]23)cs1
2. CC1(C)S[C@@H]2C(N3C(=O)[C@@H](c4ccccc4)NC3(C)C)C(=O)N2[C@H]1C(=O)O (some centres undefined)
3. COP(N)(=O)SC (centres undefined)
4. NC[C@H]1O[C@H](OC2[C@@H](N)C[C@@H](N)[C@H](O[C@H]3O[C@H](CO)[C@@H](O)[C@H](N)[C@H]3O)[C@H]2O)[C@H](O)[C@@H](O)[C@@H]1O (some centres undefined)

Result:
0.984
1.01
0.994
0.989

Below are 2 compounds. Give each one its normalized growth.
1. Cc1ccc(OS(=O)(=O)c2c(Cl)sc(Cl)c2Br)c([N+](=O)[O-])n1
2. COC1=CC(C)[C@@H]2C[C@H]3OC(=O)C[C@H]4C(C)=C(OC)C(=O)C([C@@]34C)[C@@]2(C)C1=O (some centres undefined)

Result:
1. 0.962
2. 1.01

---

Assay: chemical genetic growth profiling, strain panel (AID 1159580);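 also: tested at 20 µM; growth read once vehicle control cultures reached saturation at 30 °C; 1 = growth at the plate median or of vehicle wells; lower values mean less growth of the strain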
Details: S. cerevisiae deletion strains, growth OD, locus YOR144C, strain elg1
Hit rate of the full screen: of about 5,500 compounds, about 2,000 (36%) were called active. Roughly 18% stayed inconclusive and do not appear here. Cut-off read from the data, not from the text of the source: active = normalized growth mostly below about 0.91 (no sharp cut-off); inconclusive = no clear call, values can overlap the other calls; inactive = mostly above about 0.92. The list shows a part of the results.
# output must be one of active, inactive

Please review the following examples before continuing.
CC1=CC(=O)C(C(C)C)=CC1=O; active
C[C@@H]1CCC2[C@](C)(CO)[C@@H](O)CC[C@]2(C)[C@@]12CC[C@@](CO)(CCO)O2 (some centres undefined); inactive
CCc1ccc2c(O)c3c(cc2c1C(=O)OC)C(=O)c1c(O)ccc(O)c1C3=O; inactive

Okay, next one:
Q: Could you check what this test reported for CO[C@@H]1[C@@H](OC(N)=O)[C@@H](O)[C@H](Oc2ccc3c(O)c(NC(=O)c4ccc(O)c(CC=C(C)C)c4)c(=O)oc3c2C)OC1(C)C ?
Result: inactive

---

Assay: chemical genetic growth profiling, strain panel (AID 1159580);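 also: tested at 20 µM; growth read once vehicle control cultures reached saturation at 30 °C; 1 = growth at the plate median or of vehicle wells; lower values mean less growth of the strain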
Conditions: S. cerevisiae deletion strains, growth OD, locus YKR091W, strain srl3
Among all 5,500 compounds or so, about 2,000 (36%) were called active. About 18% were inconclusive and are not listed. No stated cut-off is given here; in the data, active means normalized growth mostly below about 0.91 (no sharp cut-off); inconclusive means no clear call, values can overlap the other calls; inactive means mostly above about 0.92. This is one part of the list.
# output must be one of active, inactive

Please review the following examples before continuing.
CO[C@@H]1[C@@H](OC(N)=O)[C@@H](O)[C@H](Oc2ccc3c(O)c(NC(=O)c4ccc(O)c(CC=C(C)C)c4)c(=O)oc3c2C)OC1(C)C; inactive
CSc1nc(NC(C)C)nc(NC(C)C)n1; inactive

Q: Could you check what this test reported for COC1CC(OC2CCC3(C)C(CCC4C3CCC3(C)C(C5=CC(=O)OC5)C(OC(C)=O)CC43O)C2)OC(C)C1O (stereo not drawn) ?
Result: inactive

Q: Could you check what this test reported for O=C(Oc1ccccc1C(=O)O)c1ccccc1O ?
Result: inactive

Q: Could you check what this test reported for COP(N)(=O)SC (stereo not drawn) ?
Result: inactive

Q: Could you check what this test reported for NC(=O)c1ccccc1O ?
Result: inactive

Q: Could you check what this test reported for O=C(/C=C(\O)c1ccccc1)c1ccccc1O ?
Result: active

Q: Could you check what this test reported for C[C@@H]1O[C@@H](O[C@H]2CC[C@]3(C=O)C4CC[C@]5(C)[C@@H](C6=CC(=O)OC6)CC[C@]5(O)C4CC[C@]3(O)C2)[C@H](O)[C@H](O)[C@H]1O (stereo partly drawn) ?
Result: inactive

Q: Could you check what this test reported for C[C@H]1O[C@H](O[C@H]2[C@H](O)[C@@H](O)[C@@H](O[C@H]3[C@H](O)[C@@H](O)C(O)O[C@@H]3CO)O[C@@H]2CO)[C@H](O)[C@@H](O)[C@@H]1N[C@H]1C=C(CO)[C@@H](O)[C@H](O)[C@H]1O (stereo partly drawn) ?
Result: inactive

Q: Could you check what this test reported for CCn1nc(C(=O)O)c(=O)c2cc3c(cc21)OCO3 ?
Result: inactive
